System: CEM cells HIV-1 protection, formazan growth assay
Experiment: NCI AIDS Antiviral Assay
Settings: measured here: growth of uninfected CEM cells
Method: The ability of compounds to protect human CEM cells from HIV-1 infection is measured as a screen for new compounds capable of inhibiting the HIV virus. Five concentrations of drug were tested on uninfected and infected cells and cell growth was measured using a soluble formazan assay. […] Compounds that provided at least 50% protection were retested. Compounds that provided at least 50% protection on retest were listed as moderately active. […]
We'd kindly ask you to apply these IC50 classes: low bracket = under 4 µM, middle bracket = from 4 µM up to 30 µM, high bracket = 30 µM and over

Worked examples, 4 compounds total:
# compound, classAssignment
data = [
    ("N#Cc1sc2nc3ccccc3n2c1N", "middle bracket"),
    ("CC(=O)OC[C@]1(C)CCCC2(C)C1CCC1C=C(C)[C@H]3CCC12C3 (stereo partly drawn)", "high bracket"),
    ("OCCN(CCO)CCn1cnc2c(NCc3ccccc3)ncnc21", "high bracket"),
    ("Cc1ccc(C(=O)OC[C@H]2CC[C@@H](n3cc(N(C)C4CCCCC4)c(=O)[nH]c3=O)O2)cc1", "high bracket"),
]

Textbook exercise: identify the category of the compound given here, CC(=O)NCCSSCCCCS(=O)O , according to its measured value.
low bracket

Also, Cc1cc2c(c(C(=O)NCC(=O)N[C@@H](C)C(=O)OCc3ccccc3)c1)Oc1c(cc(C)cc1C(=O)NCC(=O)N[C@@H](C)C(=O)OCc1ccccc1)S2 please.
middle bracket

Also, O=c1cc2ccccc2nn1Cc1ccccc1Cl please.
high bracket

====

System: CEM cells HIV-1 protection, formazan growth assay
Assay: NCI AIDS Antiviral Assay
pEC50: −log10 of the molar value.
measurementKind: pEC50

These solved cases illustrate the format of a correct answer.
# compound, tgt, measValue
data = [
    ("CCCCNC(=O)Sc1ccccc1C(=O)NCCC(N)=O", "CEM cells HIV-1 protection, formazan growth assay", 6.03),
    ("CC12CC[C@H](O)C(C)(C)[C@H]1CC[C@](C)(O)C2COc1ccc2ccc(=O)oc2c1 (stereo not given in full)", "CEM cells HIV-1 protection, formazan growth assay", "< 3.49"),
]

What value of pEC50 has been reported for the following compound? Cc1c(C)c(C)c(-n2c(=O)n(C)c(=O)n2-n2c(=O)n(C)c(=O)n2-c2c(C)c(C)c(C)c(C)c2C)c(C)c1C
< 4.00

Also, COc1ccccc1CNCCCCCNCCCCCCCCCCNCCCCCNCc1ccccc1OC please.
< 3.70

Also, CCOC(=O)CCN1C(=O)c2ccc(NC(=O)C(=O)O)cc2S1(=O)=O please.
< 3.70

====

Test system: CEM cells HIV-1 protection, formazan growth assay
Assay: NCI AIDS Antiviral Assay
Details: measured here: growth of uninfected CEM cells
measurementKind: pIC50
pIC50 is defined as minus the log10 of a concentration measured in mol/L.

These solved cases illustrate the format of a correct answer.
# compound, pIC50
rows = [
    ("O=[N+]([O-])c1ccc(N=Nc2c(O)c(N=Nc3cc([N+](=O)[O-])cc([N+](=O)[O-])c3O)cc(N=Nc3cc(S(=O)(=O)O)cc4cc(S(=O)(=O)O)cc(O)c34)c2O)cc1", 4.30),
    ("COc1ccc(/C=C2\\CCCC(CN(C)C)C2=O)cc1 (centres undefined)", 5.99),
    ("C[N+](C)(CCCCCC[N+](C)(C)C1c2ccccc2-c2ccccc21)C1c2ccccc2-c2ccccc21", 3.74),
    ("CCCCCCSC[C@H](OC(C)=O)[C@@H](OC(C)=O)[C@@H](OC(C)=O)[C@@H](COC(C)=O)OC(C)=O", 4.27),
]

What value of pIC50 has been reported for the following compound? Fc1nc(Sc2ncnc3nc[nH]c23)nc(-c2c3ccccc3c3sc4ccccc4n23)n1
4.01

====

Test system: CEM cells HIV-1 protection, formazan growth assay
Assay: NCI AIDS Antiviral Assay
Conditions: measured here: growth of uninfected CEM cells
measurementKind: IC50

These solved cases illustrate the format of a correct answer.
# molecule, tgt, IC50
measured = [
    ("COC(=O)C1=C(C)N2CCCOC2(C)C(C(=O)OC)C1c1cccc(Cl)c1 (stereo unspecified)", "CEM cells HIV-1 protection, formazan growth assay", "112 µM"),
    ("O=C(Nc1cccc(C(F)(F)F)c1)C(Cl)=C(Cl)Cl", "CEM cells HIV-1 protection, formazan growth assay", "2.34 µM"),
    ("NCCCN(CCCN(C(=O)Nc1ccccc1)c1ccccc1)C(=O)Nc1ccccc1", "CEM cells HIV-1 protection, formazan growth assay", "55 µM"),
    ("N#CCCN(C1=NN(C(=O)CC(=O)Nc2ccccc2Cl)C(c2ccccc2)C1)c1ccc(Cl)cc1 (stereo unspecified)", "CEM cells HIV-1 protection, formazan growth assay", "> 3.89 µM"),
    ("O=c1ssc(Cl)c1-c1ccccc1", "CEM cells HIV-1 protection, formazan growth assay", "10.2 µM"),
]

Now consider a different molecule.
What value of IC50 on CEM cells HIV-1 protection, formazan growth assay does O=C1C2CCCCC2C(=O)N1n1c(Cc2ccccc2)n[nH]c1=O (stereo unspecified) have?
> 200 µM

====

Test system: CEM cells HIV-1 protection, formazan growth assay
Assay: NCI AIDS Antiviral Assay;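 active = compounds giving half or more protection of infected cells from virus-caused growth loss, again on retest; inactive = the rest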
Result category, one only: active, inactive

Worked examples, 5 molecules total:
# molecule, classAssignment
rows = [
    ("CC1=C(C(=O)Nc2ccc(Cl)c(C(=O)OC(C)C)c2)SCCO1", "active"),
    ("COc1ccc(C2(OC)Oc3ccccc3-c3nc4ccccc4nc32)cc1 (stereo unspecified)", "inactive"),
    ("COC1CC(n2ccc(=O)[nH]c2=O)OC1CO (stereo unspecified)", "inactive"),
    ("Cc1cccc(CC(Cc2ccc(C)cc2C(=O)O)C(=O)O)c1 (stereo unspecified)", "inactive"),
    ("Cc1ccc(Nc2nc3c(s2)C(=O)c2ccccc2C3=O)cc1", "inactive"),
]

Here is another molecule to look at.
Could you please tell me the result logged for CC(=O)OC1CC2CC(=O)CC1N2C (stereo unspecified) in this assay?
inactive

====

Tested on: CEM cells HIV-1 protection, formazan growth assay
Experiment: NCI AIDS Antiviral Assay
measurementKind: EC50

These solved cases illustrate the format of a correct answer.
# molecule, EC50
measured = [
    ("Cc1ccc(C)c(NC(=O)C(=O)C2C(=O)N(c3ccccc3)N=C2N)c1 (stereo not given)", "> 708 µM"),
    ("O=C(/C=C(\\C(=O)c1cccs1)c1cccs1)c1ccc(C(=O)/C=C(\\C(=O)c2cccs2)c2cccs2)cc1", "> 200 µM"),
    ("CC(=O)c1sc2n(C)c(=O)c3ccccc3[n+]2c1C", "> 200 µM"),
]

Now consider a different molecule.
What value of EC50 on CEM cells HIV-1 protection, formazan growth assay does COc1c2occc2c(CN)c2ccc(=O)oc12 have?
> 316 µM

====

Test system: CEM cells HIV-1 protection, formazan growth assay
Assay: NCI AIDS Antiviral Assay
Settings: measured here: growth of uninfected CEM cells
pIC50: −log10 of the molar value.
// values below are reported pIC50

These solved cases illustrate the format of a correct answer.
# compound, pIC50
records = [
    ("O=c1ccc(-c2ccc(-n3ccnc3)cc2)nn1CCO", "< 3.70"),
    ("Cc1ccccc1NC(=O)C(=O)CC(=O)c1ccc([N+](=O)[O-])cc1", "< 5.08"),
    ("CC(=O)O[C@H]1CC[C@H]2[C@@H]3CCC4C(C)=NNC(=O)C4[C@H]3CC[C@]12C (stereo not given in full)", "< 3.70"),
    ("COc1ccc([C@@]23Oc4cc(OC)cc(OC)c4[C@]2(O)[C@H](O)[C@H](C(=O)N(C)C)[C@H]3c2ccccc2)cc1", 7.20),
]

What value of pIC50 has been reported for the following compound? CC(=O)OCC1OC(n2cnc3nc(Br)[nH]c(=O)c32)C(OC(C)=O)C1OC(C)=O (stereo not given)
< 3.70

====

// values below are reported pIC50
Test system: CEM cells HIV-1 protection, formazan growth assay
Assay: NCI AIDS Antiviral Assay
Settings: measured here: growth of uninfected CEM cells
pIC50 is defined as minus the log10 of a concentration measured in mol/L.

# molecule, tgt, measValue
data = [
    ("COc1cc2c(cc1-c1coc3cc(OCC=C(C)C)ccc3c1=O)OCO2", "CEM cells HIV-1 protection, formazan growth assay", 5.15),
]

What value of pIC50 has been reported for the following molecule? CCC[CH2][Sn]1([CH2]CCC)[O]CC(COc2c(Cl)cc(Cl)cc2Cl)[O]1 (centres undefined)
5.73

Also, O=C(N/N=C(/c1nc2ccc([N+](=O)[O-])cc2[nH]c1=O)C(O)c1ccc([N+](=O)[O-])cc1)c1ccncc1 (centres undefined) please.
3.89

Also, CN(C)CCN1C(=O)N(CCN(C)C)c2c3cc(O)ccc3nc3c([N+](=O)[O-])ccc1c23 please.
5.63
